EXPERIMENTAL DETAILS: chemical genetic growth profiling, strain panel (AID 1159580);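 note: tested at 20 µM; growth read once vehicle control cultures reached saturation at 30 °C; 1 = growth at the plate median or of vehicle wells; lower values mean less growth of the strain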
CONDITION: S. cerevisiae deletion strains, growth OD, locus YEL003W, strain gim4, stronger effect = lower value
Out of some 5,500 compounds screened, about 2,000 (36%) were called active. Roughly 18% stayed inconclusive and do not appear here. Some of the results follow.
Examples of compounds with documented normalized growth follow.
Just the number, please.

- O=C(CCCN1CCC2(CC1)C(=O)NCN2c1ccccc1)c1ccc(F)cc1: 0.991
- O=C(Oc1cccc2cccnc12)c1ccccc1: 0.94
- O=C(Oc1ccccc1C(=O)O)c1ccccc1O: 0.979
- O=C(O)c1ccccc1O: 0.973
- NC(=O)c1ccccc1O: 0.981
- CCn1nc(C(=O)O)c(=O)c2cc3c(cc21)OCO3: 1.02
- O=C(/C=C(\O)c1ccccc1)c1ccccc1O: 0.709
- CC(=O)Oc1ccccc1C(=O)Oc1ccccc1C(=O)O: 1.01
- O=C(O)CCc1nc(-c2ccccc2)c(-c2ccccc2)o1: 0.943
- CCC(=O)NCC[C@@H]1CCc2ccc3c(c21)CCO3: 0.972

Reported normalized growth of CCCc1nc(C)c2c(=O)[nH]c(-c3cc(S(=O)(=O)N4CCN(CC)CC4)ccc3OCC)nn12 : 0.969

Entry COC(=O)N/N=C\c1c[n+]([O-])c2ccccc2[n+]1[O-] ; normalized growth = 0.975
